Cited source for all entries: patent US20240277631A1

TARGET_UNDER_TEST: CYP1A2 (Homo sapiens)
Sequence (P05177 whole entry): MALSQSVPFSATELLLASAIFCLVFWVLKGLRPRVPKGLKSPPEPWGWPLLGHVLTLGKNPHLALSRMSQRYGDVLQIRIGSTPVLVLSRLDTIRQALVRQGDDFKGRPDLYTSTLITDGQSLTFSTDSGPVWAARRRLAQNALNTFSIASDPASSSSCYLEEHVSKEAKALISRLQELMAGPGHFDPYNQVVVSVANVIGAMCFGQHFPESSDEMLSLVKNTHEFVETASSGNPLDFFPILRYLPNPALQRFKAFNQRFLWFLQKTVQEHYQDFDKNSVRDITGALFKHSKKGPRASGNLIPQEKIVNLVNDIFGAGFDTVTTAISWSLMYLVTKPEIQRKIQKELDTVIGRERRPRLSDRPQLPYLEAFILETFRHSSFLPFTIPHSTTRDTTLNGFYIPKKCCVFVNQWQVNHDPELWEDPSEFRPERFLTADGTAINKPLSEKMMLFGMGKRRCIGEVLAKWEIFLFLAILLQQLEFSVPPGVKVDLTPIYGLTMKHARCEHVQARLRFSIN
TEST_NAME: stability with recombinant CYP1A2
Format: in vitro ADME
PARTICULARS: recombinant CYP1A2, intrinsic clearance, read-out: Recombinant CYP CLINT
READOUT_TYPE: microsomal CLint at 1 μM (µL/min/mg)
A number alone suffices; assume µL/min/mg.

Reported microsomal CLint at 1 μM for CCC(=O)N(C)c1ccc(Cl)c(Cl)c1 [ELP-004] : what is it? 2.85

###

TARGET_UNDER_TEST: CYP2D6 (Homo sapiens)
Sequence (P10635 whole entry): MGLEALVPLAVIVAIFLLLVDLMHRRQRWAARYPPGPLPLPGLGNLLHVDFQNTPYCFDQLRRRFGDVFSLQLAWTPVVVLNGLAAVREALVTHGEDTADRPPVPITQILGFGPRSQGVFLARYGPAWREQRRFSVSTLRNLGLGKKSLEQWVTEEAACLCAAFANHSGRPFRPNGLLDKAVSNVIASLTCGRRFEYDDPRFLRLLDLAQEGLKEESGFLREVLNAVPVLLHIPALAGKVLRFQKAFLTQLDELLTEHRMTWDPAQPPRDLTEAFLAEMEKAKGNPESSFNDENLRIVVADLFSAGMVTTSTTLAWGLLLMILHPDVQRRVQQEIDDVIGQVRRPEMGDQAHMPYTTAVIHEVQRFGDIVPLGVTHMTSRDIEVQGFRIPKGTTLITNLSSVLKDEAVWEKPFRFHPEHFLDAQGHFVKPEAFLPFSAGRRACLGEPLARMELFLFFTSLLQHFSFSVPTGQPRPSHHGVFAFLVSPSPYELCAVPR
TEST_NAME: stability with recombinant CYP2D6
Assay type: in vitro ADME
PARTICULARS: human; recombinant CYP2D6, intrinsic clearance; read-out: Recombinant CYP CLINT
Protocol: Depicted in table 2 is cytochrome P450 phenotyping and inhibition by ELP-004. The stability of ELP-004 was tested in the presence of recombinant enzymes CYP1A2, CYP2B6, CYP2C8, CYP2C9, CYP2C19, CYP2D6, and CYP3A4. ELP-004 (1 μM) was incubated with recombinant enzymes and NADPH. The amount of ELP-004 remaining at each timepoint was analyzed by LC-MS/MS. […] The intrinsic clearance of ELP-004 was determined. […]
READOUT_TYPE: microsomal CLint at 1 μM

Give microsomal CLint at 1 μM (CYP2D6 (Homo sapiens)) of the following compound: CCC(=O)N(C)c1ccc(Cl)c(Cl)c1 < 0.154 µL/min/mg
